Experiment: folding enthalpy; higher = less favourable; fluorescence melt of hairpins on a sequencing array, two-state fit
Conditions: sodium 0.088 M
Rule: folding enthalpy of -30 kcal/mol or more gives YES; anything lower gives NO.

{"columns": ["Primary Sequence", "Classification"],
 "data": [
  ["GAAGACGGAAACGTCTCC (.(((((....))))).)", "YES"],
  ["GCTGCTCGAAAGAGTAGC (((.(((....))).)))", "NO"],
  ["GATCGAGAGTTCGATC ((((((....))))))", "NO"],
  ["GAGCCTGGAAACGGGTTC ((.((.(....).)).))", "YES"],
  ["GATCCGCGACGGATC ((((((...))))))", "NO"],
  ["GATCCGCCCCCGGATC ((((((....))))))", "NO"],
  ["GATCCGTCTTCGGATC ((((((....))))))", "NO"],
  ["GTATGCGGAAACGCGTAC (((.(((....))).)))", "NO"],
  ["GCTCATGAAAATGAGC ((((((....))))))", "NO"],
  ["GCGGTCGAAAGACATCGC ((((((....)))..)))", "YES"],
  ["GGGATTGGAAACAGTCCC ((((.((....)).))))", "NO"],
  ["GGCCCAGGAAACCGGACC ((.((.(....).)).))", "YES"],
  ["GCGAAGTTCGC ((((...))))", "YES"],
  ["GATCCTGAGGAGGATC ((((((....))))))", "NO"],
  ["GATCTATCACTAGATC ((((((....))))))", "NO"],
  ["GATCACAAGCGTGATC ((((((....))))))", "NO"],
  ["GGGATTGGAAACAACCCC (((.(((....))).)))", "YES"],
  ["GGGCAGTCGAAAGACCCC (((..(((....))))))", "YES"],
  ["GGGGATGCGAAAGCACCC (((..(((....))))))", "YES"],
  ["GACTTTACGAAAGTAGTC (((..(((....))))))", "YES"],
  ["GAACTGAAAAGTTC (((((....)))))", "YES"],
  ["GTGTACGGAAACATACAC (((((.(....).)))))", "YES"],
  ["TGTAAGAAATTACA (((((....)))))", "YES"],
  ["GTGGCTGCGAAAGCACAC (((..(((....))))))", "YES"],
  ["GAGTCCGGAAACGGGTTC ((..(((....)))..))", "YES"],
  ["GTATATACGAAAGTATAC (((..(((....))))))", "YES"],
  ["GTACACGGAAACGTGTGC (.(((((....))))).)", "YES"],
  ["GAATACGGAAACGTGTTC (((.(((....))).)))", "NO"],
  ["GATCTGCAGCAGATC ((((((...))))))", "NO"],
  ["GATCCCCTAAGGGATC ((((((....))))))", "NO"],
  ["GGAACTCCGAAAGGATCC (((..(((....))))))", "YES"],
  ["GGTGTAGGAAACTATGCC ((..(((....)))..))", "NO"],
  ["GGTCTGGGAAACCAGGTC (..((((....))))..)", "YES"],
  ["GATCTGTGGCCAGATC ((((((....))))))", "NO"],
  ["GTCCCAGGAAACTAGGAC ((((.((....)).))))", "YES"],
  ["GCCCTGCGAAAGCCGGGC ((((.((....)).))))", "NO"]
]}

====

# Tm listing for each entry below
Assay: melting temperature; fluorescence melt of hairpins on a sequencing array, two-state fit, raised by 9.35 °C to match UV melts
Details: sodium 0.088 M
Observation Type: Tm

{"columns": ["Primary Sequence", "Observation Type", "Assay Value"],
 "data": [
  ["GCTTAGCGAAAGCTTGGC ((..(((....)))..))", "Tm", "47 °C"],
  ["GATCCGCCAGCGGATC ((((((....))))))", "Tm", "65.2 °C"],
  ["GCTGCCGAAAGGCACAGC ((((((....)))..)))", "Tm", "48.2 °C"],
  ["GATCTCGACAGAGATC ((((((....))))))", "Tm", "66.8 °C"],
  ["GATCTGAAATCAGATC ((((((....))))))", "Tm", "45.1 °C"],
  ["GCTCTCGGAAACGGGAGC ((((.((....)).))))", "Tm", "57.4 °C"],
  ["GATGTAGAAATACATC ((((((....))))))", "Tm", "45.7 °C"],
  ["GGTAGGGGAAACCCCACC (((.(((....))).)))", "Tm", "46.2 °C"],
  ["GATCCGGGCACGGATC ((((((....))))))", "Tm", "67.8 °C"],
  ["GATCCATGCTGGATC ((((((...))))))", "Tm", "52 °C"],
  ["GTGTGCGAAAGCATCAC ((((((....))).)))", "Tm", "54 °C"],
  ["GTGAGCGAAAGCTGCAC ((((((....))).)))", "Tm", "48.7 °C"],
  ["TCTCGGAAACGAGA (((((....)))))", "Tm", "47.9 °C"],
  ["GGTGACTCGAAAGAGACC (((..(((....))))))", "Tm", "33 °C"],
  ["GCGTACGAAAGTAGCGC ((((((....))).)))", "Tm", "68.8 °C"],
  ["GTCGTACGAAAGTAGAC (((.(((....))))))", "Tm", "52 °C"],
  ["GATCTTAGCTAAGATC ((((((....))))))", "Tm", "48.5 °C"],
  ["GTGGTGGCGAAAGCCCAC (((..(((....))))))", "Tm", "53.5 °C"],
  ["GATCGTGGGCACGATC ((((((....))))))", "Tm", "56.8 °C"],
  ["CGCTAGAAATAGCG (((((....)))))", "Tm", "51.8 °C"],
  ["CGATTCCGGAAACGGTCG (((..(((....))))))", "Tm", "36.2 °C"],
  ["GCTCTGCGAAAGCAAGC (((.(((....))))))", "Tm", "48.2 °C"],
  ["GATCACGGAAACGCGATC ((((.((....)).))))", "Tm", "48.2 °C"],
  ["GACAGGGGAAACCCTGTC (((((((....)))))))", "Tm", "66.4 °C"],
  ["GGTTTCGAAAGAAATACC ((((((....)))..)))", "Tm", "32.7 °C"]
]}

====

Assay: melting temperature; fluorescence melt of hairpins on a sequencing array, two-state fit, raised by 9.35 °C to match UV melts
Conditions: sodium 0.088 M
# Tm listing for each entry below

{"columns": ["Primary Sequence", "Tm"],
 "data": [
  ["GCGAAAAGTCGC ((((....))))", "41.7 °C"],
  ["GGCCCAACGAAAGTTGCC (((..(((....))))))", "32.5 °C"],
  ["GATCGCCATTGCGATC ((((((....))))))", "67.5 °C"],
  ["GGAGGGGAAACCCTCC ((((((....))))))", "62.8 °C"],
  ["GGCTCTCGAAAGAGCGCC (((.(((....))).)))", "56.4 °C"]
]}

====

Test: melting temperature; fluorescence melt of hairpins on a sequencing array, two-state fit, raised by 9.35 °C to match UV melts
Details: sodium 0.088 M
# Tm listing for each entry below

{"columns": ["Primary Sequence", "Tm"],
 "data": [
  ["GGAGCTCGAAAGAGGTCC (((.(((....))).)))", "65.9 °C"],
  ["GTTATCGAAAGATGAAC ((((((....))).)))", "26.4 °C"],
  ["GATGTCGGAAACGACATC (((((((....)))))))", "68.4 °C"],
  ["GTTAGCGAAAGCTGTAAC ((((((....)))..)))", "31.6 °C"],
  ["GGGTTCGGAAACGAGTCC ((..(((....)))..))", "37.7 °C"],
  ["GCGTCACGACGC ((((....))))", "58.6 °C"],
  ["GCCGGCGAAAGCCTCGGC ((((((....)))..)))", "53.3 °C"],
  ["GCTGCGCGAAAGCTTAGC (((..((....))..)))", "39.6 °C"],
  ["GTTCACTCGAAAGAGAAC (((..(((....))))))", "27.8 °C"],
  ["GATCCCAGGGGGATC ((((((...))))))", "67 °C"],
  ["TAGATGAAAATCTA (((((....)))))", "26.1 °C"],
  ["GAACACGAAAGTGTTC ((((((....))))))", "69 °C"],
  ["GTCCACCGAAAGGTTGAC (((.(((....))).)))", "49.3 °C"],
  ["GGGTACGAAAGTAACCCC ((((((....)))..)))", "54.2 °C"],
  ["GCGGGTGGAAACATCCGC ((((.((....)).))))", "64 °C"],
  ["GCGCGGCGAAAGCCTAGC ((..(((....)))..))", "61.1 °C"],
  ["GCGGGCTCCCGC ((((....))))", "66 °C"],
  ["GATCACCGCAGTGATC ((((((....))))))", "59 °C"],
  ["GGATGACGAAAGTCTCC (((.(((....))))))", "48.6 °C"],
  ["GCATGAGGAAACTCATAC (.(((((....))))).)", "32.6 °C"],
  ["GCCATCGAAAGATCGGGC ((((((....)))..)))", "41.6 °C"],
  ["GTAGACCCGAAAGGGTAC (((..(((....))))))", "32.3 °C"]
]}
